Origin of measurements: PubChem BioAssay

Assay system: L-lactate dehydrogenase (Plasmodium falciparum (isolate CDC / Honduras))
Test: PfLDH activity inhibition – cell lysate, 3D7 strain, counter-screen for P. falciparum growth inhibition project (AID 2304);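 note: 0% = vehicle and 100% = reference inhibitor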
Test context: P. falciparum 3D7 crude extract, LDH APAD/NBT absorbance; at 2 µM; stronger effect = higher value
This listing pairs compounds with measured inhibition.
Write the value in % as a bare number.

Cc1cccc2[nH]c(-c3cccc(-c4ccc(NC(=O)CS(C)(=O)=O)cc4)c3)nc12 :: -8
CN(C)CCOc1cccc(NC(=O)Nc2ccc(-c3ccccc3)cc2)c1 :: -1
O=C(N[C@H]1CCN(Cc2ccc(OCCCN3CCCCC3)cc2)C1)c1ccc(Oc2ccccc2)cc1 :: 6
CCCCCCNC(=O)C1Cc2c([nH]c3cc(Cl)ccc23)C2(CCN(CCC)CC2)N1 (centres undefined) :: 0
N#Cc1ccc2c(c1)CCN(CCC1CCC(NC(=O)c3cc4ccc(Cl)cc4[nH]3)CC1)C2 (centres undefined) :: -3

For CN1CCC(N2CCN(c3ccc4c(=O)nc(CCc5cccc(F)c5F)n(CC(=O)N(C)Cc5ccc(-c6ccc(C(F)(F)F)cc6)cc5)c4n3)CC2)CC1 , what is its reported inhibition? 2

For Nn1c(=O)oc2ccc(Cl)cc2c1=O , what is its reported inhibition? -5

For COc1cccc(OC)c1C(=O)Nc1cccc(-c2nn3ccccc3c2-c2ccnc(Nc3cccc(F)c3)n2)c1 , what is its reported inhibition? 8

For COc1cc(NCCCNCc2cn(Cc3cc(Br)cc(Br)c3)c3ccccc23)nc2ccccc12 , what is its reported inhibition? 4

###

Test: human hepatoma cell viability loss – ATP luminescence, cytotoxicity control for P. falciparum antimalarial project, primary screen (AID 2303);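 note: 0% = DMSO wells and 100% = digitonin-killed cells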
Test context: HepG2 viability, 24-48 h, at 10 µM, stronger effect = higher value
Recorded endpoint: inhibition (%)
Write the value in % as a bare number.

Worked examples, 4 molecules total:
NCc1cccc(-c2ccc(CNC3CCN(Cc4ccccc4)CC3)cc2)c1 :: 2
CN1CCN(CCCN(Cc2ccc(-c3ccc(CNCc4ccc5c(c4)OCO5)cc3)cc2)C(=O)Nc2ccccc2)CC1 :: 36
CCOC(=O)c1ccc(NC(=O)Nc2cccc(-c3ccc(-c4nc5ccccc5[nH]4)cc3)c2)cc1 :: 54
COCCN1CCC(CN(C)CC(C)(C)c2nc(-c3ccc(Cl)c(O)c3)c(-c3ccncc3)[nH]2)CC1 :: -8

For COc1ccc(Cc2cnc3nc(N)nc(N)c3c2C)cc1 , what is its reported inhibition? 65

###

This listing pairs compounds with measured inhibition.
Assay system: L-lactate dehydrogenase (Plasmodium falciparum (isolate CDC / Honduras)) (UniProt Q27743)
Sequence (Q27743 whole entry, looked up): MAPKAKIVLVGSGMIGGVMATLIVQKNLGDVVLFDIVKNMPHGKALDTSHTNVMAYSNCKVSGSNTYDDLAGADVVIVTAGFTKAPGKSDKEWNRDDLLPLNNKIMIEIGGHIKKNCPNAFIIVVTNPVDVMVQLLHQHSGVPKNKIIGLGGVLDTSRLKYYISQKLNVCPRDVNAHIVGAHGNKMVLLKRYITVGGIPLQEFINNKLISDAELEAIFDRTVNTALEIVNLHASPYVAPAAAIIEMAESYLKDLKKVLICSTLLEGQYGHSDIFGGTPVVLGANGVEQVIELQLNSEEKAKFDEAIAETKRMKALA
Test: PfLDH activity inhibition – cell lysate, 3D7 strain, counter-screen for P. falciparum growth inhibition project (AID 2304);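 note: 0% = vehicle and 100% = reference inhibitor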
Test context: P. falciparum 3D7 crude extract, LDH APAD/NBT absorbance; at 2 µM; stronger effect = higher value
Write the value in % as a bare number.

Worked examples, 5 compounds total:
c1cc2c3c(cccc3c1)NC(CCCCCCCCC1=Nc3cccc4cccc(c34)N1)=N2 :: 0
c1ccc2c(NCCCCCCNc3ccnc4ccccc34)ccnc2c1 :: 5
COc1ccc(N2CCN(CCCCNC(=O)c3ccc(NC(=O)c4cc(C(F)(F)F)cc(C(F)(F)F)c4)cc3)CC2)c(OC)c1 :: 2
Cc1cc(NN=Cc2ccccc2[N+](=O)[O-])c2cc(C(F)(F)F)ccc2n1 :: 1
COc1ccccc1NC(=O)NC1CCN(CCCCCNC(=O)/C=C/c2ccc(Cl)c(Cl)c2)CC1 :: -1

For COC(=O)c1ccc(CN2CCC(N(Cc3cccc(Oc4ccccc4)c3)S(=O)(=O)c3ccc(NC(C)=O)cc3)CC2)cc1 , what is its reported inhibition? -6

For COc1cc2ncnc(Nc3ccc(OCc4ccccc4Br)c(Cl)c3)c2cc1OC , what is its reported inhibition? -4

For CCN(CCNC(=O)C1CCN(c2cc(-c3cccc(C)c3)ncn2)CC1)Cc1ccccc1 , what is its reported inhibition? 2

For CCCc1cc(OC)c(CC2c3cc(O)c(Cl)cc3CCN2C)cc1OC (centres undefined) , what is its reported inhibition? -5

###

Assay system: Calcium-dependent protein kinase 4 (Plasmodium falciparum (isolate 3D7))
Test: PfCDPK4 kinase inhibitors, biochemical, TCAMS library (AID 1159588)
Test context: recombinant PfCDPK4, Kinase-Glo ATP depletion luminescence
Results with a measured potency or affinity are listed apart. Active and inactive are the calls of the source. The limit is not given here; nearly all actives have IC50 up to about 0.91 µM.
Recorded endpoint: outcome

COc1ccc(NC(=O)/C=C/c2ccc(-c3ccccc3)cc2)cc1N1CCN(C)CC1 :: inactive
COc1ccc(NC(=O)CCNc2cc(C)nc(NCc3ccccc3C)n2)cc1 :: inactive
Nc1c(Cl)cc(C(O)CNCCCCCCOCCc2ccc(O)cc2)cc1Cl (stereo not given) :: inactive
CCC(C)(C)C1CCc2[nH]c3ccccc3c(=O)c2C1 (stereo not given) :: inactive

Record C=CCCCNCC(NCCCNc1cc(=O)c2ccccc2[nH]1)c1cc(Br)cc(Br)c1 (stereo not given) : what is its outcome with Calcium-dependent protein kinase 4 (Plasmodium falciparum (isolate 3D7))? inactive

Record CN(C)C(CNC(=O)c1cc(-c2ccncc2)c(-c2ccc(NC(=O)Nc3cccc(F)c3)cc2)o1)c1ccccc1 (stereo not given) : what is its outcome with Calcium-dependent protein kinase 4 (Plasmodium falciparum (isolate 3D7))? inactive

Record Cc1ccc2cc(NC(=O)c3cccc(C(=O)Nc4ccc5nc(C)ccc5c4)n3)ccc2n1 : what is its outcome with Calcium-dependent protein kinase 4 (Plasmodium falciparum (isolate 3D7))? inactive

Record COc1ccc2nc(N(CCCn3ccnc3)C(=O)C=Cc3cccs3)sc2c1 : what is its outcome with Calcium-dependent protein kinase 4 (Plasmodium falciparum (isolate 3D7))? inactive

###

Assay system: Plasmodium falciparum protein kinase 6 (PK6, PF3D7_1337100) (UniProt Q8IDW1)
Test: PfPK6 kinase inhibitors, biochemical, TCAMS library (AID 1159586)
Test context: recombinant PfPK6, Kinase-Glo ATP depletion luminescence
Measured potencies and affinities stand elsewhere. The source made the active and inactive calls. How the calls were made is not given here.
Recorded endpoint: outcome

Worked examples, 5 molecules total:
CCOc1cc(C(=O)NC2CCN(Cc3ccccc3)CC2)ccc1-c1nc2ccc(Cl)cc2[nH]1 :: inactive
COc1cccc2c(NN=Cc3ccccc3[N+](=O)[O-])ccnc12 :: inactive
O=C(/C=C/c1cccc(Cl)c1)N1CCC(C(O)CN2CCC3(CC2)CN(C(=O)/C=C/c2cccc(Cl)c2)c2ccccc23)CC1 (stereo not drawn) :: inactive
COc1ccc(Br)cc1C1[C@@H]2C(=O)N(c3ccc(Br)cc3)C(=O)[C@@H]2C2(C(=O)O)CC(OCc3ccccc3)CN12 (stereo partly drawn) :: inactive
CN1CCN(Cc2ccc(-c3ccc4ncnc(Nc5ccc(OCc6ccccc6)cc5)c4c3)o2)CC1 :: inactive

Record Cn1cncc1C(=O)Nc1cccc(-c2cccc(-c3nc4ccc(C(F)(F)F)cc4[nH]3)c2)c1 : what is its outcome with Plasmodium falciparum protein kinase 6 (PK6, PF3D7_1337100) (UniProt Q8IDW1)? inactive

Record CCCC1(NC[C@@H](O)[C@H](Cc2ccccc2)NC(=O)c2cc(NCC)cc(N3CCCCS3(=O)=O)c2)CCCCC1 : what is its outcome with Plasmodium falciparum protein kinase 6 (PK6, PF3D7_1337100) (UniProt Q8IDW1)? inactive

Record CCN1CCC(N(Cc2ccc(-c3ccc(C(F)(F)F)cc3)cc2)C(=O)Cn2c(CCc3cccc(F)c3F)cc(=O)c3c2CCC3)CC1 : what is its outcome with Plasmodium falciparum protein kinase 6 (PK6, PF3D7_1337100) (UniProt Q8IDW1)? inactive

Record CCN1CCN(c2cc(C)c3cc(NC(=O)c4cccc(Cl)c4)ccc3n2)CC1 : what is its outcome with Plasmodium falciparum protein kinase 6 (PK6, PF3D7_1337100) (UniProt Q8IDW1)? inactive

Record COc1ccc2ncc(F)c(CCN3C[C@H](CNCc4ccccc4)[C@H](O)C3)c2n1 : what is its outcome with Plasmodium falciparum protein kinase 6 (PK6, PF3D7_1337100) (UniProt Q8IDW1)? inactive

Record Cc1c(CC(=O)N(C)C2CCN(CCCCCNC(=O)/C=C/c3ccc(Cl)c(Cl)c3)CC2)sc2ccc(Cl)cc12 : what is its outcome with Plasmodium falciparum protein kinase 6 (PK6, PF3D7_1337100) (UniProt Q8IDW1)? inactive

Record O=C(Nc1cccc(-c2ccc(-c3nc4ccc(F)cc4[nH]3)cc2)c1)c1csnn1 : what is its outcome with Plasmodium falciparum protein kinase 6 (PK6, PF3D7_1337100) (UniProt Q8IDW1)? inactive

###

This listing pairs compounds with measured growth inhibition.
Test: inhibition of 3D7 malaria parasite growth – strain 3D7 (AID 2306);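 note: 0% = DMSO wells and 100% = chloroquine plus artemisinin control wells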
Test context: P. falciparum 3D7 erythrocytic growth, LDH absorbance, 72 h; at 2 µM; stronger effect = higher value
Active and inactive are the calls of the source. How the calls were made is not given here.

Worked examples, 8 compounds total:
COc1ccc(C=NNc2cc(C)nc3ccccc23)cc1OC :: 91% (active)
CCCNC(=O)C1Cc2c([nH]c3cc(Br)ccc23)C2(CCN(CCc3ccccc3)CC2)N1 (stereo not given) :: 92% (active)
CCCC(=O)Nc1ccc(OCCCN(Cc2ccccc2F)c2ccc(C#N)c(C(F)(F)F)c2)cc1 :: 89% (active)
O=C(NC1CCC1)C1CCN(C(c2ccc(Cl)cc2)c2ccc(Cl)cc2)CC1 :: 95% (active)
CNCc1cccc2[nH]c(-c3ccc(Cc4cc(Cl)ccc4OCC(C)C)o3)nc12 :: 97% (active)
Clc1cccc(Nc2ccc3c(N4CCCCC4)ncnc3n2)c1 :: 97% (active)
CCOc1cc2c(cc1S(=O)(=O)c1ccc(COc3ccc(C(F)(F)F)cc3)cc1)CCN(C)CC2 :: 87% (active)
CN(C)CCCNc1ccnc2cc(Cl)ccc12 :: 100% (active)

For COc1cc2nc(N3CCC(CNC(=O)c4ccc(-c5ccc(C#N)cc5C)cc4)CC3)nc(N)c2cc1OC , what is its reported growth inhibition? 101% (active)

For COc1ccc(CNC2CCN(C)CC2)cc1-c1ccc(S(=O)(=O)NCC2CCCO2)s1 (stereo not given) , what is its reported growth inhibition? 95% (active)
